Test system: coculture of normal human keratinocytes and melanocytes
Assay: Melanogenesis modulation: 14C-thiouracil incorporation in keratinocyte/melanocyte coculture
Type: cell-based
Conditions: Homo sapiens, vitamin C alone; read-out: IC50 (14C ThioU./3H Leu.)
pIC50: −log10 of the molar value.
Metric name: pIC50

According to the records, this compound O=C1O[C@H]([C@@H](O)CO)C(O)=C1O [vitamin C, ascorbic acid] displays pIC50 of ~3.64
